Exercise: state measured Trimeric HA Binding: RLU for each of the binders provided.
subject of test: recombinant soluble homotrimeric HA of A/Solomon Islands/3/06 (H1N1) (Influenza A virus A/Solomon Islands/3/2006(H1N1))
procedure summary: HA microarray, BCC supernatant
reported conditions: remark: other sources report otherwise
Answers are plain numbers, in RLU.

TCN-557 (5081_A04) (antibody, V domains shown) VH: QVQLVQSGAEVKKPGASVKVSCKASGHTFTGYYIHWVRQAPGQGLEWMGWINPDSGATSSAQNFQGRVTMTGDTSSSTAYMELSRLSFDDTAVYYCARVLFTSPFDFWGEGTLVTVSS VL: QAVVTQEPSLAVSPGGTVTLTCGSSTGAVTRGHYPYWFQQKPGQAPRALIYDSAGNRHSWTPARFSGSLLGGKAALTLSGAQPEDEAEYYCLLSYSGVWVFGGGTKLTVL = 40700

Now take the following binder into account.
**Query** // Trimeric HA Binding: RLU lookup, key: TCN-532 (5262_H18) (antibody, V domains shown) VH: QVQLQESGPGLVKPSETLSLTCTVSGGSVSSETYYWSWIRQPPGKGLEWIGYIYYIGNTDYRPSLKSRVTISLDTSKNQFSLKLSSVTAADTAVYYCARGAYYDSSGYPAFYIWGQGTMVTVSS VL: QSVLTQPPSVSGAPGQRVTISCTGSSSNIGSDYDVHWYKQLPGTAPKLLIFGNSNRPSGVPDRFSGSKSGTSASLAITGLQAEDEADYYCQSYDSSLSGFHVFGSGTKVTVL
**Result** 327
